# ASSAYED TARGET: KDR (phospho-KDR, VEGF165-stimulated HUVEC cells) (Homo sapiens (Human), UniProt P35968)
# Sequence (P35968 20-1356): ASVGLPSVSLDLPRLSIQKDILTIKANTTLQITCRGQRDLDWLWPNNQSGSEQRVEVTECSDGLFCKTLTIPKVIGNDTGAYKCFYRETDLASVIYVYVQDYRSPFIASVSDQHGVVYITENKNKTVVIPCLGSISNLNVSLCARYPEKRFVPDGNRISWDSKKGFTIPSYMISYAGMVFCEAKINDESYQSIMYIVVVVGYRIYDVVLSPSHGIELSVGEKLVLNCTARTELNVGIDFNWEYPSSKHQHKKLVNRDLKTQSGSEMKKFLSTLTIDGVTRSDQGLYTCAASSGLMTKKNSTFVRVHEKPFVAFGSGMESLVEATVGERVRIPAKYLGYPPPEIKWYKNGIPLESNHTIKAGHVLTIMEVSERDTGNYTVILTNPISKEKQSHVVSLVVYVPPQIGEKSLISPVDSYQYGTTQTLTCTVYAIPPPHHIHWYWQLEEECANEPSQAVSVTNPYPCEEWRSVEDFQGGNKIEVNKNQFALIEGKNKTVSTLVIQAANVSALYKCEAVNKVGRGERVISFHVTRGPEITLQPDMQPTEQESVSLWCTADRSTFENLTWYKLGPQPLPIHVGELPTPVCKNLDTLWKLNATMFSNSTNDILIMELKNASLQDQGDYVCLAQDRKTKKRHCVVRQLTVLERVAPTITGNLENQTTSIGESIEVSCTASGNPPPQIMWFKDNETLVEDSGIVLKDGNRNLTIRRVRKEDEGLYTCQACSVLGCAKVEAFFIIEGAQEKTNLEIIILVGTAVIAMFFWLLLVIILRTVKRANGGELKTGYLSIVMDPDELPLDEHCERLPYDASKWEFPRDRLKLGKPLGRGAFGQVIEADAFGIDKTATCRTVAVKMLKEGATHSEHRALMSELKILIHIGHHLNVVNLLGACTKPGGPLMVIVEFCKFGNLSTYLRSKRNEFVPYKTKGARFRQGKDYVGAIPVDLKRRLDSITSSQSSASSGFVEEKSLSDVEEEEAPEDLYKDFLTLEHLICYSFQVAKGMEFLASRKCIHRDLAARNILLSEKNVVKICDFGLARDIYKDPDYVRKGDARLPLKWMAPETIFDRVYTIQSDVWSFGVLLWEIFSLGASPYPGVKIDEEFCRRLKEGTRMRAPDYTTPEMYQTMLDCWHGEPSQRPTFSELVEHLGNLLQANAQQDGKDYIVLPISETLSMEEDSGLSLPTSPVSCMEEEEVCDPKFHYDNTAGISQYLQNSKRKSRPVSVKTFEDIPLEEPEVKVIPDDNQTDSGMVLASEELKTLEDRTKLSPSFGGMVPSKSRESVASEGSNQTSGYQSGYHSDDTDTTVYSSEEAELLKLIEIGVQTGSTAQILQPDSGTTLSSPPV
# PROTOCOL: KDR autophosphorylation ELISA in HUVEC cells (Example G)
# Assay type: cell-based
# CONDITIONS: cellular activity; KDR autophosphorylation ELISA in HUVEC cells
# Experimental: Human umbilical vein endothelial cells or HUVEC (Lonza #C2519A) were seeded at 2×10^4 cells/well onto 96-well plates (Corning #3904), in EGM-2 growth medium (Lonza #CC-3162) containing 1% Penicillin Streptomycin (Thermo Fisher #15140-122). […] IC50 values were calculated by nonlinear regression analysis using a 4-parameter logistic curve fit in ActivityBase XE (IDBS).
pIC50: −log10 of the molar value. Where a name gives a salt, the structure may show the parent alone.
READOUT KIND: pIC50

>  <COMPOUND>
COc1cc2nccc(Oc3ccc(NC(=O)c4cn(-c5cnn(C(F)F)c5)cc(-c5ccc(F)cc5)c4=O)cc3F)c2nc1OC [Compound 60]

>  <RESULT>
< 6.52

$$$$

Notebook: pull reported pIC50 for KDR (phospho-KDR, VEGF165-stimulated HUVEC cells) (Homo sapiens (Human), UniProt P35968), entry COc1cc2nccc(Oc3ccc(NC(=O)c4nn(C(C)C)c(C)c(-c5ccc(F)cc5)c4=O)cc3F)c2cc1OC [Compound 575]
> 7.00

Notebook: pull reported pIC50 for KDR (phospho-KDR, VEGF165-stimulated HUVEC cells) (Homo sapiens (Human), UniProt P35968), entry Cc1nc2c(Oc3ccc(NC(=O)c4cn(C(C)C)c(C)c(-c5ccc(F)cc5)c4=O)cc3)ccnc2cc1-c1cccnc1 [Compound 613, hydrochloride]
< 6.52
